# measurement_target: mTGR5 (Mus musculus, UniProt Q80SS6)
# Construct: expressed in transfected cells; host or cells: CHO-Pi10 clone 4
# Sequence (Q80SS6 whole entry): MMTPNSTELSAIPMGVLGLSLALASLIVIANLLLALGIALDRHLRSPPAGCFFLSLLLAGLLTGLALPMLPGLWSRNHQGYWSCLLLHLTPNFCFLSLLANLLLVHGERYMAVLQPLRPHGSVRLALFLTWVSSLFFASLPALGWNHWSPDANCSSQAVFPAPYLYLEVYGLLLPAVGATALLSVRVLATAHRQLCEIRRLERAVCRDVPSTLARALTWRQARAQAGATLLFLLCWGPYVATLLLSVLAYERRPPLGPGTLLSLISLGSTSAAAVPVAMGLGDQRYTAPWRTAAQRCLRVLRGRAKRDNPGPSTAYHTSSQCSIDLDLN
# protocol: TGR5 activity: cAMP in mTGR5 CHO-Pi10 clone 4 cells
# Format: cell-based
# run_parameters: 0.5 h; mTGR5 CHO cells, value in parentheses; read-out: (mTGR5 CHO) Efficacy
measured_quantity: Emax (%)
Give a bare numeral; the unit % is implied.

{"molecule": "CC[C@H]1[C@@H](O)C2C3CC[C@H]([C@H](C)CCc4noc(=O)[nH]4)[C@@]3(C)[C@@H](O)CC2[C@@]2(C)CC[C@@H](O)C[C@@H]12 (stereo partly drawn)", "unit_of_measurement": "%", "Emax": 108}
{"molecule": "CC[C@H]1[C@@H](O)[C@@H]2[C@H](C[C@H](O)[C@]3(C)[C@@H]([C@H](C)C[C@H](CF)C(=O)O)CC[C@@H]23)[C@@]2(C)CC[C@@H](O)C[C@@H]12", "unit_of_measurement": "%", "Emax": 119}

Here is the next item to consider.
Ask: Recall and state the measured Emax for CC[C@H]1[C@@H](O)C2C3CC[C@H]([C@H](C)CCc4nn[nH]n4)[C@@]3(C)[C@@H](O)CC2[C@@]2(C)CC[C@@H](O)C[C@@H]12 (stereo partly drawn) .
Result: 105

* * *

# protocol: Critical micellar concentration (surface tension / dye solubilization)
# Type: physicochemical
# run_parameters: BA sodium salts in 0.1 M NaCl, 25° C.
measured_quantity: CMC
Just so you know, I need the unit written after the number.

{"molecule": "CC[C@H]1[C@@H](O)[C@@H]2[C@H](CC[C@]3(C)[C@@H]([C@H](C)CCc4nn[nH]n4)[C@@H](O)C[C@@H]23)[C@@]2(C)CC[C@@H](O)C[C@@H]12 [Compound 17]", "CMC": "11 mM"}

Ask: Recall and state the measured CMC for CC[C@H]1[C@@H](O)C2C3CC[C@H]([C@H](C)CCc4noc(=O)[nH]4)[C@@]3(C)[C@@H](O)CC2[C@@]2(C)CC[C@@H](O)C[C@@H]12 (stereo partly drawn) [Compound 11] .
Result: 5 mM

Ask: Recall and state the measured CMC for C[C@H](CCC(=O)NCC(=O)O)[C@H]1CC[C@H]2[C@@H]3[C@H](O)C[C@@H]4C[C@H](O)CC[C@]4(C)[C@H]3CC[C@]12C [GCDCA, reference compound] .
Result: 2 mM

* * *

# protocol: Water solubility
# Type: physicochemical
# run_parameters: simulated gastric fluid, thermodynamic from solid, 0.1 M HCl, pH 1.00, 25° C., read-out: Ws
Here, each record is paired with measured solubility thermodynamic at 1 week data.
Give a bare numeral; the unit µM is implied.

Before answering, review these 4 worked examples.
{"compound": "CC[C@H]1[C@@H](O)C2C3CC[C@H]([C@H](C)CCc4noc(=O)[nH]4)[C@@]3(C)[C@@H](O)CC2[C@@]2(C)CC[C@@H](O)C[C@@H]12 (some centres unmarked)", "measured_quantity": "solubility thermodynamic at 1 week", "reported_value": 392}
{"compound": "CC[C@@H]1C2C[C@H](O)CC[C@]2(C)C2CC[C@@]3(C)C(CC[C@@H]3[C@H](C)Cc3nc(=O)o[nH]3)C2[C@@H]1O (some centres unmarked)", "measured_quantity": "solubility thermodynamic at 1 week", "reported_value": 2020}
{"compound": "CC[C@H]1[C@@H](O)C2C3CC[C@H]([C@H](C)C[C@@H](CO)C(=O)O)[C@@]3(C)[C@@H](O)CC2[C@@]2(C)CC[C@@H](O)C[C@@H]12 (some centres unmarked)", "measured_quantity": "solubility thermodynamic at 1 week", "reported_value": 3200}
{"compound": "CC[C@H]1[C@@H](O)C2C3CC[C@H]([C@H](C)CC(=O)NCCOS(=O)(=O)[O-])[C@@]3(C)CCC2[C@@]2(C)CC[C@@H](O)C[C@@H]12.[Na+] (some centres unmarked)", "measured_quantity": "solubility thermodynamic at 1 week", "reported_value": 1810}

Here is the next item to consider.
Ask: Recall and state the measured solubility thermodynamic at 1 week for CC[C@H]1[C@@H](O)[C@@H]2[C@H](CC[C@]3(C)[C@@H]([C@H](C)CCc4nn[nH]n4)[C@@H](O)C[C@@H]23)[C@@]2(C)CC[C@@H](O)C[C@@H]12 .
Result: 5
